test system: TK-10 renal; experiment: NCI tumour cell line growth inhibition, 48 h
Overview of recorded TGI for various compounds
Quantity kind: TGI

>  <Compound>
C=C[C@@]1(C)CC[C@@H]2[C@@]3(C1)O[C@H]3CC1[C@](C)(C(=O)OC)CCC[C@@]12C (some centres undefined)

>  <Reading>
51.7 µM

$$$$
>  <Compound>
NCCCOc1ccc([N+](=O)[O-])cc1Cl

>  <Reading>
> 100 µM

$$$$
>  <Compound>
COC(=O)C1=C(C)NC(C)=C(C(=O)OC)C1c1ccccc1NO

>  <Reading>
> 100 µM

$$$$
>  <Compound>
C=C1C(=O)O[C@H]2[C@H]1CC/C(COC(=O)CSCSCC(=O)OC/C1=C/CC[C@@]3(C)O[C@H]3[C@H]3OC(=O)C(=C)[C@@H]3CC1)=C\CC[C@@]1(C)O[C@@H]21

>  <Reading>
3.67 µM

$$$$
>  <Compound>
CCOC(=O)NC(Nc1ncccn1)(C(=O)OCC)C(F)(F)F (centres undefined)

>  <Reading>
> 100 µM

$$$$
>  <Compound>
CC(C)(C)[Si](C)(C)OCC1OC(n2cnc3c(N)ncnc32)CC1O (centres undefined)

>  <Reading>
> 100 µM

$$$$
>  <Compound>
c1ccc(-c2nnc(-c3ccccn3)c3c2C[C@@H]2C[C@@H]4Cc5c(-c6ccccn6)nnc(-c6ccccn6)c5[C@@H]4[C@H]32)nc1

>  <Reading>
> 100 µM

$$$$
>  <Compound>
O=C(c1ccccc1)n1c(Cc2ccccc2)nc2cc(C34CC5CC(CC(C5)C3)C4)ccc21

>  <Reading>
> 100 µM

$$$$
>  <Compound>
Cc1cc(-c2cccc3ccccc23)c(C#N)c(=S)n1C1OC(CO)C(O)C(O)C1O (centres undefined)

>  <Reading>
> 100 µM

$$$$
>  <Compound>
Cc1c[n+](=O)c2ccccc2n1[O-]

>  <Reading>
> 100 µM

$$$$
>  <Compound>
COc1ccc(-c2nn(-c3cccc(Cl)c3)cc2-c2cc(-c3cccs3)[nH]c(=S)n2)cc1

>  <Reading>
32.8 µM

$$$$
>  <Compound>
CC(=O)C1(Cc2cccc3ccccc23)S(=O)(=O)OCCOS1(=O)=O

>  <Reading>
39.6 µM

$$$$
>  <Compound>
c1coc(CNc2ncnc3[nH]ncc23)c1

>  <Reading>
> 100 µM

$$$$
>  <Compound>
CCCCCCCCNc1cc2c3c(c1)CCCN3CCC2

>  <Reading>
22 µM

$$$$
>  <Compound>
O=C1C(Cl)=C(Nc2cccc(F)c2)C(=O)N1Cc1ccc(Cl)cc1

>  <Reading>
19.3 µM

$$$$
>  <Compound>
CN(C)c1ccc(/C=C/C(=O)CC(=O)/C=C/c2ccc(N(C)C)cc2)cc1

>  <Reading>
> 100 µM

$$$$
>  <Compound>
CN(O)C(=O)SCC(NC(=O)CCC(N)C(=O)O)C(=O)NCC(=O)O (centres undefined)

>  <Reading>
> 2000 µM

$$$$
>  <Compound>
CN1CCc2c3n(c4cc(Br)ccc24)[C@H](O)CCCC31 (some centres undefined)

>  <Reading>
> 10 µM

$$$$
>  <Compound>
CCc1ccccc1NC(=O)C1=C(C)NC(C)=C(C(=O)Nc2ccccc2CC)C1c1ccccc1Cl

>  <Reading>
> 100 µM

$$$$
>  <Compound>
O=c1[nH]c(=O)c2cn[nH]c2[nH]1

>  <Reading>
> 100 µM

$$$$
>  <Compound>
COC1=C(N)C(=O)c2nc(C)ccc2C1=O

>  <Reading>
16.4 µM

$$$$
>  <Compound>
CCN1CCC(O)(c2ccc(Oc3ccccc3)cc2)C(C(=O)c2ccc(Oc3ccccc3)cc2)C1 (centres undefined)

>  <Reading>
27.3 µM

$$$$
>  <Compound>
O=C(Oc1cccc(F)c1OC(=O)c1cccc(O)c1)c1cccc(O)c1

>  <Reading>
> 100 µM

$$$$
>  <Compound>
CC1OC(OC2C(O)COC(OC3C(C)OC(OC4C(OC(=O)[C@]56CCC(C)(C)C[C@@H]5C5=CCC7[C@@]8(C)C[C@H](O)[C@H](OC9OC(CO)C(O)C(OC%10OC(CO)C(O)C(O)C%10O)C9O)[C@@](C)(CO)[C@@H]8CC[C@@]7(C)[C@]5(C)CC6)OCC(O)C4O)C(O)C3OC3OCC(O)(CO)C3O)C2O)C(O)C(O)C1O (some centres undefined)

>  <Reading>
22.1 µM

$$$$

====

test system: OVCAR-3 ovarian; test: NCI tumour cell line growth inhibition, 48 h; in the data active = GI50 below about 0.43 µM; inactive = the rest
Classes used: 1.0 (active), 0.0 (inactive)

>  <Smi>
COc1cc(/C=C\c2cc(OC)c(OC)c(OC)c2)cc(NC(=O)/C=C/c2cc(OC)c(OC)c(OC)c2)c1OC

>  <Class label>
0.0

$$$$
>  <Smi>
C=C1C(=O)O[C@H]2[C@H]1CC/C(CNC(=O)/C=C/c1cc(OC)c(OC)c(OC)c1)=C\CC[C@@]1(C)O[C@@H]21

>  <Class label>
1.0

$$$$
>  <Smi>
N.N.N.N.N.NC(=O)c1nn[n-]n1.[Cl-].[Co+3]

>  <Class label>
0.0

$$$$
>  <Smi>
N#Cc1ccc(OCc2nc(N)nc(N)c2-c2ccc(Cl)c(Cl)c2)cc1

>  <Class label>
0.0

$$$$

====

tested on: ACHN renal; experiment: NCI tumour cell line growth inhibition, 48 h
Overview of recorded TGI for various molecules

>  <Smi>
CC(C)Cn1cnc2c(SCc3ccc(Cl)cc3Cl)nc(N)nc21

>  <TGI>
76.5 µM

$$$$
>  <Smi>
C[C@]12CC[C@@H]3c4ccc(O)cc4CC[C@H]3[C@@H]1CC[C@@H]2OP(=O)(O)O

>  <TGI>
> 100 µM

$$$$
>  <Smi>
Cc1ccc(NCC(=O)N2CC(=O)Nc3ccccc32)c(C)c1

>  <TGI>
> 100 µM

$$$$
>  <Smi>
Oc1c(-c2nnc(-c3ccccc3Cl)o2)sc2nnc(-c3ccccc3)c(-c3ccccc3)c12

>  <TGI>
89.7 µM

$$$$

====

system: BT-549 breast; assay: NCI tumour cell line growth inhibition, 48 h
Overview of recorded TGI for various compounds

>  <Compound>
C=C[C@@]1(C)CC[C@@H]2[C@@]3(C1)O[C@H]3CC1[C@](C)(C(=O)OC)CCC[C@@]12C (stereo partly specified)

>  <System under test>
BT-549 breast

>  <TGI>
67.2 µM

$$$$
>  <Compound>
CC1(C)C2C=C(CCN3CCOCC3)CC1C2 (stereo unspecified)

>  <System under test>
BT-549 breast

>  <TGI>
> 100 µM

$$$$
>  <Compound>
COC(=O)[C@H](Cc1ccccc1)NP(=O)(OCCC#N)OCC1OC(n2cc(C)c(=O)[nH]c2=O)CC1N=[N+]=[N-] (stereo partly specified)

>  <System under test>
BT-549 breast

>  <TGI>
> 100 µM

$$$$
>  <Compound>
C/C(=C(/C)c1ccc(O)cc1)c1ccc(O)cc1

>  <System under test>
BT-549 breast

>  <TGI>
> 100 µM

$$$$
>  <Compound>
O=C1C(Cl)=C(Nc2cccc(F)c2)C(=O)N1Cc1ccc(Cl)cc1

>  <System under test>
BT-549 breast

>  <TGI>
13.4 µM

$$$$
>  <Compound>
CC(CC[C@@H](O)C(C)(C)O)C1[C@@H](O)CC2(C)C3CC(O)C4C(C)(C)[C@@H](OC5OC(CO)C(O)C(O)C5O)CC[C@@]45C[C@@]35CC[C@]12C (stereo partly specified)

>  <System under test>
BT-549 breast

>  <TGI>
> 10 µM

$$$$

====

Overview of recorded TGI for various compounds
tested on: SF-295 CNS; assay: NCI tumour cell line growth inhibition, 48 h

>  <Compound>
CC1(C)O[C@H]2[C@H](O)C[C@](O)(CO)C[C@H]2O1

>  <TGI>
> 100 µM

$$$$
>  <Compound>
O=C1N=C(SC(SC2=NC(=O)C3(NN2)c2ccccc2-c2ccccc23)=C(SC2=NC(=O)C3(NN2)c2ccccc2-c2ccccc23)SC2=NC(=O)C3(NN2)c2ccccc2-c2ccccc23)NNC12c1ccccc1-c1ccccc12

>  <TGI>
> 10 µM

$$$$
>  <Compound>
O=C(O)Cc1c(-c2ccc([N+](=O)[O-])cc2)c(=O)oc2cc(O)ccc12

>  <TGI>
49.9 µM

$$$$
>  <Compound>
CCc1cccc(C(C)(C)C)c1NC(=S)N/C=C(/C#N)C(N)=O

>  <TGI>
> 100 µM

$$$$
>  <Compound>
CCOC(=O)C12CCCC1(O)N(NC(=O)OC(C)(C)C)C(C)=C2C(=O)OC (stereo unspecified)

>  <TGI>
> 100 µM

$$$$
>  <Compound>
Fc1ccc(C(OCCN2CCN(CCCCl)CC2)c2ccc(F)cc2)cc1

>  <TGI>
58.1 µM

$$$$
>  <Compound>
CCOC(=O)c1cc(=O)c2ccnc3c2n1CCS3

>  <TGI>
> 100 µM

$$$$
>  <Compound>
CCCCCCCCCCCc1nnc(N)o1

>  <TGI>
> 100 µM

$$$$
>  <Compound>
O=C(NCCCCNc1cccccc1=O)OCc1ccccc1

>  <TGI>
> 100 µM

$$$$
>  <Compound>
C[C@]12CC[C@@H]3c4ccc(OC(=O)N(CCCl)CCCl)cc4CC[C@H]3[C@@H]1CC[C@@H]2O

>  <TGI>
4.14 µM

$$$$
>  <Compound>
O=S1(=O)OCCOS(=O)(=O)C1S(=O)(=O)c1ccc2ccccc2c1

>  <TGI>
> 100 µM

$$$$

Origin of the recorded values: PubChem BioAssay (NCI)
